measured.target: Cytochrome P450 2C19 (Homo sapiens) (UniProt P33261)
Sequence (P33261 whole entry, looked up): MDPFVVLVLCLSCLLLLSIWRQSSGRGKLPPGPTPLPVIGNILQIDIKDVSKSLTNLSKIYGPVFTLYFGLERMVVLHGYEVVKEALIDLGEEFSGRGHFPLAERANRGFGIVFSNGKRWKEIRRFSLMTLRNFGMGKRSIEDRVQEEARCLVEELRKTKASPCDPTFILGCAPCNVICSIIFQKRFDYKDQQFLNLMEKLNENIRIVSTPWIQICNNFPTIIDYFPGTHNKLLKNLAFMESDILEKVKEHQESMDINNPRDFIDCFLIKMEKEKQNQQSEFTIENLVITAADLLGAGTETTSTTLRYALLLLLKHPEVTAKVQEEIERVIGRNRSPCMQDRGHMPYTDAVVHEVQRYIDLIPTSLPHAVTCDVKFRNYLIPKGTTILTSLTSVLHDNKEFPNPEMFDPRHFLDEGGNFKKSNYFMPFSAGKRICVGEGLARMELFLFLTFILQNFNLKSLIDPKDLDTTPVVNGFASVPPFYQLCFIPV
method: Cytochrome panel assay with activity outcomes
applied.conditions: recombinant CYP, pro-luciferin dealkylation, luminescence, p450-cyp2c19; series mostly up to 57.1 µM
Experimental: The P450 gene superfamily is involved in the metabolism and clearance of xenobiotics. This assay used various human CYP P450 isozymes to measure the dealkylation of various pro-luciferin substrates to luciferin. The luciferin is then measured by luminescence after the addition of a luciferase detection reagent. […] Inhibitors and some substrates limit the production of luciferin, and decrease measured luminescence. […] 8, Detection, 1 sec, ViewLux luminescent read […]
About 5,800 (36%) of roughly 16,000 compounds were called active. Inconclusive results (about 23%) are left out. The list shows a part of the results.
Listed compounds paired with reported AC50

**Query** Requested field: AC50. Item: COc1ccc(CCC(C)NC2C3CC4CC(C3)CC2C4)cc1 (centres undefined)
**Result** 25.1 µM (active)

**Query** Requested field: AC50. Item: COc1cccc(N(C(=O)Cn2nnc(-c3ccc(C)cc3)n2)C(C(=O)NC(C)(C)C)c2c[nH]c3ccccc23)c1 (centres undefined)
**Result** 10 µM (active)

**Query** Requested field: AC50. Item: Cc1ccccc1C1C(C#N)=C2N=C(N)c3c(sc4c3CCCCC4)N2C2=C1C(=O)CC(C)(C)C2 (centres undefined)
**Result** 6.31 µM (active)

Consider now this further compound.
**Query** Requested field: AC50. Item: c1csc(CNc2ncnc3ccc(-c4ccoc4)cc23)c1
**Result** 6.31 µM (active)

----------
measured.target: Cytochrome P450 2C19 (Homo sapiens)
method: Cytochrome panel assay with activity outcomes
applied.conditions: recombinant CYP, pro-luciferin dealkylation, luminescence, p450-cyp2c19; series mostly up to 57.1 µM
Hit rate of the full screen: of about 16,000 compounds, about 5,800 (36%) were called active. Inconclusive results (about 23%) are left out. Some of the results follow.
test.readout: AC50

Example results:
**Query** Requested field: AC50. Item: CC(C(=O)Nc1ccccc1Sc1ccccc1)N(c1ccccc1)S(C)(=O)=O (stereo not drawn)
**Result** 4.47 µM (active)

**Query** Requested field: AC50. Item: CC1(C)CC(=O)c2cnc(N)nc2C1
**Result** inactive

**Query** Requested field: AC50. Item: O=C(CC1(O)CCCCC1)OC1CCCC1
**Result** 1.58 µM (active)

**Query** Requested field: AC50. Item: COc1cccc(Cn2c(=O)c(-c3cn(C)c4ccccc34)nc3cncnc32)c1
**Result** inactive

**Query** Requested field: AC50. Item: COc1ccccc1CCn1c(=O)c(-c2cn(C)c3ccccc23)nc2cncnc21
**Result** 0.316 µM (active)

**Query** Requested field: AC50. Item: Cc1ccccc1NC1=NC(=S)N(c2ccccc2)C12CCOC(C)(C)C2 (stereo not drawn)
**Result** inactive

---
**Query** Requested field: AC50. Item: Cc1c(N(C)C)c(=O)n(-c2ccccc2)n1C
**Result** inactive

**Query** Requested field: AC50. Item: COCCn1c(=O)c(-c2ccc(F)cc2)nc2cncnc21
**Result** inactive

**Query** Requested field: AC50. Item: COc1ccccc1CCn1c(=O)c(-c2ccc(F)c(F)c2)nc2cncnc21
**Result** 1.26 µM (active)

**Query** Requested field: AC50. Item: COc1ccccc1CCn1c(=O)c(-c2ccc(F)cc2)nc2cncnc21
**Result** 0.316 µM (active)

**Query** Requested field: AC50. Item: Cn1cc(-c2nc3cncnc3n(Cc3ccccc3Cl)c2=O)c2ccccc21
**Result** inactive

**Query** Requested field: AC50. Item: O=C(O)CC(O)C(=O)O (stereo not drawn)
**Result** inactive

**Query** Requested field: AC50. Item: CCN1CCN(C(=S)c2ccc(Br)cc2)CC1
**Result** 7.94 µM (active)

**Query** Requested field: AC50. Item: Cc1c(N2C(=O)/C(=C3/C(=O)N(C)c4ccccc43)SC2=S)c(=O)n(-c2ccccc2)n1C
**Result** 2.82 µM (active)

**Query** Requested field: AC50. Item: O=C(Nc1cccc(F)c1)N1CC2(CCN(C(=O)c3csnn3)CC2)C1
**Result** inactive

**Query** Requested field: AC50. Item: Cc1[nH]nc(-c2ccc(OCc3cnn(-c4ccccc4)c3)cc2O)c1Oc1ccccc1F
**Result** 1.78 µM (active)

**Query** Requested field: AC50. Item: CN1CCN(c2ncc3nc(CCc4ccccc4)c(=O)n(C)c3n2)CC1
**Result** inactive

**Query** Requested field: AC50. Item: COc1cccc(Nc2ncc3nc(CCc4ccccc4)c(=O)n(CCC#N)c3n2)c1
**Result** inactive

----------
measured.target: Cytochrome P450 2C19 (Homo sapiens)
method: Cytochrome panel assay with activity outcomes
applied.conditions: recombinant CYP, pro-luciferin dealkylation, luminescence, p450-cyp2c19; series mostly up to 57.1 µM
The whole screen tested about 16,000 compounds, of which about 5,800 (36%) were called active. Another 23% or so got no clear call; they are omitted. The call rests on the fitted dose curve; in most records, active means well fitted curve in the direction sought with a large enough effect; inconclusive means small, poorly fitted or top-dose-only effect, or effect the other way; inactive means no such curve, though single readings can be large or run the other way. The list shows a part of the results.
Outcomes you can answer with include only these: 1.0 = active, 0.0 = inactive

**Query** Write down the call the test reported for this compound. Item: CCC1=NN(C(=O)CCc2ccccc2)C(O)(C(F)(F)F)C1 (stereo unspecified)
**Result** 1.0

**Query** Write down the call the test reported for this compound. Item: CCCCCCCCCCCCCCCC[N+](C)(C)CCN(Cc1ccc(OC)cc1)c1ncccn1
**Result** 0.0

**Query** Write down the call the test reported for this compound. Item: Cc1ccc(CS(=O)(=O)CCC(=O)NCCCN2CCCC2=O)cc1
**Result** 0.0

---
**Query** Write down the call the test reported for this compound. Item: CC(=O)Nc1sc2c(c1CN1CCN(C)CC1)CCCC2
**Result** 1.0

**Query** Write down the call the test reported for this compound. Item: COCCn1c(=O)cnc2cnc(Nc3ccccc3)nc21
**Result** 0.0

**Query** Write down the call the test reported for this compound. Item: Nc1nc(Br)c2c(F)cccc2c1-c1ccc(Cl)cc1
**Result** 1.0

**Query** Write down the call the test reported for this compound. Item: COCC(=O)N1CCC2(CC1)CN(c1ccccn1)C2
**Result** 0.0

**Query** Write down the call the test reported for this compound. Item: COc1ccc(C(=O)N2CCC3(CCN(Cc4ccncc4)CC3)CC2)cc1
**Result** 0.0

**Query** Write down the call the test reported for this compound. Item: S=C(S)O[C@@H]1C[C@@H]2C[C@H]1[C@@H]1CCC[C@H]21
**Result** 1.0

**Query** Write down the call the test reported for this compound. Item: Cc1cc(O)c(-c2cc(O)c(C)cc2O)cc1O
**Result** 1.0

----------
measured.target: Cytochrome P450 2C19 (Homo sapiens)
method: Cytochrome panel assay with activity outcomes
applied.conditions: recombinant CYP, pro-luciferin dealkylation, luminescence, p450-cyp2c19; series mostly up to 57.1 µM
The campaign covered roughly 16,000 compounds. About 5,800 (36%) were called active. Inconclusive results (about 23%) are left out. Calls follow the shape of the dose curve; as a rule, active = well fitted curve in the direction sought with a large enough effect; inconclusive = small, poorly fitted or top-dose-only effect, or effect the other way; inactive = no such curve, though single readings can be large or run the other way. This is one part of the list.
Outcomes you can answer with include only these: active, inactive

**Query** Write down the call the test reported for this compound. Item: COC(=O)C[C@@H]1O[C@H]1[C@H](C)[C@@H](OC)C(C)C
**Result** active

**Query** Write down the call the test reported for this compound. Item: CN1CCN(c2nc(-c3cccnc3)nc3ccccc23)CC1
**Result** inactive

**Query** Write down the call the test reported for this compound. Item: CN(C)Cc1ccccc1-c1nc(N2CCOCC2)c2ccccc2n1
**Result** inactive

---
**Query** Write down the call the test reported for this compound. Item: CCCNC(=S)Nc1ccc(Br)cc1
**Result** active

**Query** Write down the call the test reported for this compound. Item: O=C1OC(OC2CCCCC2)(c2ccccc2)c2ccccc21 (configuration not stated)
**Result** active

**Query** Write down the call the test reported for this compound. Item: CCC(C)NS(=O)(=O)c1ccc(NC(=O)CCC2CCCCC2)cc1 (configuration not stated)
**Result** inactive

**Query** Write down the call the test reported for this compound. Item: CN1C(=O)/C(=N\OC(=O)c2cccc3ccccc23)c2ccccc21
**Result** active

----------
measured.target: Cytochrome P450 2C19 (Homo sapiens) (UniProt P33261)
method: Cytochrome panel assay with activity outcomes; for activity, negative = inhibition: % is set by controls: 0 for no effect and ±100 for the full control effect
applied.conditions: recombinant CYP, pro-luciferin dealkylation, luminescence, p450-cyp2c19; series mostly up to 57.1 µM
Among all 16,000 compounds or so, about 5,800 (36%) were called active. Roughly 23% stayed inconclusive and do not appear here. This is one part of the list.
Listed compounds paired with reported activity, negative = inhibition

**Query** Requested field: activity, negative = inhibition. Item: CCCCNN
**Result** -44.3% [at 11.4 µM] (inactive)

**Query** Requested field: activity, negative = inhibition. Item: C[C@@H](N)[C@@H](C)Cc1ccccc1
**Result** -14.2% [at 11.4 µM] (inactive)

---
**Query** Requested field: activity, negative = inhibition. Item: CCOC(=O)C1=C(C)NC(=O)N[C@@H]1c1coc2cc(C)cc(C)c2c1=O
**Result** -27.2% [at 11.4 µM] (inactive)
